Target: 5-HT2A serotonin receptors (Homo sapiens)
Sequence (P28223 whole entry): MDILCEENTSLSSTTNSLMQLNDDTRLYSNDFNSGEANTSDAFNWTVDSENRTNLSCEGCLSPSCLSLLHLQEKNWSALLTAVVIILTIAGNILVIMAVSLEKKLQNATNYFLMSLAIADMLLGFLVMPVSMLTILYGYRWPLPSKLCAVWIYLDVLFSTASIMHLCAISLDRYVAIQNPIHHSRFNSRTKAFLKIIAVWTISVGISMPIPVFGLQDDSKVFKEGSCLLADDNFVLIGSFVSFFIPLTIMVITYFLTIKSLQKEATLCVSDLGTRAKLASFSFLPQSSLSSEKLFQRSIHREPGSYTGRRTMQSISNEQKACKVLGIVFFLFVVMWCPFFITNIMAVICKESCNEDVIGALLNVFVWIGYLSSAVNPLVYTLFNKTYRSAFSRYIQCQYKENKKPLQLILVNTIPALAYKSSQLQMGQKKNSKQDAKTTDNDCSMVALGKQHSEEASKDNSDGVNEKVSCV
pKi: −log10 of the molar value.
QUANTITY MEASURED: pKi

compound="Cl.NCc1c[nH]c(=S)n1[C@H]1CCc2c(F)cc(F)cc2C1 [nepicastat, hydrochloride]" quantity_measured=pKi reported="< 5.00"

----------
Target: ⊕1B adrenoceptors (Homo sapiens)
Sequence (P35368 whole entry): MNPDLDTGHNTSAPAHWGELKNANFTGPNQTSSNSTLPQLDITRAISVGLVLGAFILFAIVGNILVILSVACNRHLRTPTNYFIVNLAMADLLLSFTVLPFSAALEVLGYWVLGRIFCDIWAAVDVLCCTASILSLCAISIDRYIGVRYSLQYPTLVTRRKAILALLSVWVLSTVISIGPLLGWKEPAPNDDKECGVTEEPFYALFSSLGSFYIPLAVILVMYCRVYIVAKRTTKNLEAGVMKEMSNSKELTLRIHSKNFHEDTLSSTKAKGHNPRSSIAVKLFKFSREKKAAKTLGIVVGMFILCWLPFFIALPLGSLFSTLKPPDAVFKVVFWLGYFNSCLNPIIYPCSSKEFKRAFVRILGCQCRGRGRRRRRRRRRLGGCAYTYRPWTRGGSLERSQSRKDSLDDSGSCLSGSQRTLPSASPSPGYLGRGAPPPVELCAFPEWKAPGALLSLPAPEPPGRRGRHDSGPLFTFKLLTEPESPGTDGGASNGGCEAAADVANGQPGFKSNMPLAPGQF
QUANTITY MEASURED: Ki

compound="Cl.NCc1c[nH]c(=S)n1[C@H]1CCc2c(F)cc(F)cc2C1 [nepicastat, hydrochloride]" reported="> 10 µM"

----------
Target: tyrosine hydroxylase (Homo sapiens, UniProt P07101)
Sequence (P07101 whole entry): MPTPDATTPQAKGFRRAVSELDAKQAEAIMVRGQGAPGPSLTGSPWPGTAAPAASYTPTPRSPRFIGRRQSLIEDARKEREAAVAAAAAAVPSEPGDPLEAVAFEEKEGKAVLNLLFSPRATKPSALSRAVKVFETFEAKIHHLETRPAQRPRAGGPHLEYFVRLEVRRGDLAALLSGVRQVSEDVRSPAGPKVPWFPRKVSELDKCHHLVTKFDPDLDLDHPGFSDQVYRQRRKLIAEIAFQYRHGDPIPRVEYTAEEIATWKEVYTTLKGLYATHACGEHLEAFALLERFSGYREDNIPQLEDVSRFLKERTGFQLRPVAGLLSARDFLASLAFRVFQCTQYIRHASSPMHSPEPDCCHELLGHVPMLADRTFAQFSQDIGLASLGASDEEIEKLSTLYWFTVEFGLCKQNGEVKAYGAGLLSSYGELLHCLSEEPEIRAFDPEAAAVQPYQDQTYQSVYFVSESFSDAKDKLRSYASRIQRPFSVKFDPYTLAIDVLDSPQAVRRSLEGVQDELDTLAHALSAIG
pIC50: −log10 of the molar value.
QUANTITY MEASURED: pIC50

compound="Cl.NCc1c[nH]c(=S)n1[C@H]1CCc2c(F)cc(F)cc2C1 [nepicastat, hydrochloride]" reported="< 5.00"
